System: Methicillin Resistant Staphylococcus aureus strain USA 300, NRS384
Assay: Minimum inhibitory concentration, broth micro-dilution (CLSI), S. aureus
Assay type: cell-based
Settings: Staphylococcus aureus, MRSA / NRS 384 / USA300, 22 h, MRSA USA 300 NRS384; 35° C., 22 hours; read-out: MIC (μg/mL) S. aureus
Experimental Endpoint: MIC (µg/mL)
Answers are plain numbers, in µg/mL.

CCCCCCCCCC(=O)NCCC(=O)N[C@@H](CCN)C(=O)N(C)[C@@H]1C(=O)N[C@@H](C)C(=O)N[C@H](C(=O)NCC#N)Cc2ccc(OCCN)c(c2)-c2cc1ccc2OCCN | 0.094
CCCCCCCCc1ccc(C(=O)N[C@@H](CCN)C(=O)N(C)[C@@H]2C(=O)N[C@@H](C)C(=O)N[C@H](C(=O)NCC#N)Cc3ccc(OCCN)c(c3)-c3cc2ccc3OCCN)c(/C=C/C(N)=O)c1 | 0.13

Now for the compound whose MIC we want.
Look up MIC of "CCCCCCCCc1ccc(C(=O)N[C@@H](CO)C(=O)N(C)[C@@H]2C(=O)N[C@@H](C)C(=O)N[C@H](C(=O)NCC#N)Cc3ccc(OCCN)c(c3)-c3cc2ccc3OCCN)c(C)c1" and report it.
0.094

---

System: Methicillin Resistant Staphylococcus aureus strain USA 300, NRS384
Assay: Minimum inhibitory concentration, broth micro-dilution (CLSI), S. aureus
Type: cell-based
Conditions: Staphylococcus aureus, MRSA / NRS 384 / USA300, 22 h, MRSA USA 300 NRS384; 35° C., 22 hours; read-out: MIC (μg/mL) S. aureus
For each of the compounds below, state its MIC.
Numbers only, in µg/mL.

Recorded results for 4 compounds are shown here.
Cc1cc(C2CCCC2)ccc1C(=O)N[C@@H](CCN)C(=O)N(C)[C@@H]1C(=O)N[C@@H](C)C(=O)N[C@H](C(=O)NCC#N)Cc2ccc(OCCN)c(c2)-c2cc1ccc2OCCN [Compound 215] | 0.19
CCc1ccc(-c2ccc(C(=O)N[C@@H](CCN)C(=O)N(C)[C@@H]3C(=O)N[C@@H](C)C(=O)N[C@H](C(=O)NCC#N)Cc4ccc(OCCN)c(c4)-c4cc3ccc4OCCN)c(C)c2)cc1 [Compound 151] | 0.031
CCCCCCCCCCCCCC(=O)N[C@@H](CCN)C(=O)N(C)[C@@H]1C(=O)N[C@@H](C)C(=O)N[C@H](C(=O)NCC#N)Cc2ccc(OCC)c(c2)-c2cc1ccc2OCCN [Compound 324] | 0.25
C=CCC(C)(C)COc1ccc(C(=O)N[C@@H](CCN)C(=O)N(C)[C@@H]2C(=O)N[C@@H](C)C(=O)N[C@H](C(=O)NCC#N)Cc3ccc(OCCN)c(c3)-c3cc2ccc3OCCN)c(C)c1 [Compound 285] | 0.063

Note: attention shifts to another entry.
Supply recorded MIC for Cc1cc(-c2ccc(C(F)(F)F)cc2)ccc1C(=O)N[C@@H](CCN)C(=O)N(C)[C@@H]1C(=O)N[C@@H](C)C(=O)N[C@H](C(=O)NCC#N)Cc2ccc(OCCN)c(c2)-c2cc1ccc2OCCN [Compound 143] here.
0.047

---

Tested on: Methicillin Resistant Staphylococcus aureus strain USA 300, NRS384
Assay: Minimum inhibitory concentration, broth micro-dilution (CLSI), S. aureus
Type: cell-based
Settings: Staphylococcus aureus, MRSA / NRS 384 / USA300, 22 h, MRSA USA 300 NRS384; 35° C., 22 hours; read-out: MIC (μg/mL) S. aureus
Experimental Endpoint: MIC
Please format your answer as a value with the unit trailing.

CCCCCCCC(=O)N[C@@H](CCN)C(=O)N(C)[C@@H]1C(=O)N[C@@H](C)C(=O)N[C@H](C(=O)NCC#N)Cc2ccc(OCCN)c(c2)-c2cc1ccc2OCCN | 1 µg/mL
CCCCCCc1ccc(C(=O)N[C@@H](CCC(N)=O)C(=O)N(C)[C@@H]2C(=O)N[C@@H](C)C(=O)N[C@H](C(=O)NCC#N)Cc3ccc(OCCN)c(c3)-c3cc2ccc3OCCN)c(C)c1 | 0.13 µg/mL
CCCCCCCCCCCC(=O)N[C@@H](CCC(=O)O)C(=O)N(C)[C@@H]1C(=O)N[C@@H](C)C(=O)N[C@H](C(=O)NCC#N)Cc2ccc(OCCN)c(c2)-c2cc1ccc2OCCN | 2 µg/mL
CCCCCCCCc1ccc(C(=O)N[C@@H](CCCN)C(=O)N(C)[C@@H]2C(=O)N[C@@H](C)C(=O)N[C@H](C(=O)NCC#N)Cc3ccc(OC)c(c3)-c3cc2ccc3OC)c(OC)c1 | 1.5 µg/mL

Alright, here's another compound for you.
Specify MIC for "Cc1cc(OCC2CCC(F)(F)CC2)ccc1C(=O)N[C@@H](CCN)C(=O)N(C)[C@@H]1C(=O)N[C@@H](C)C(=O)N[C@H](C(=O)NCC#N)Cc2ccc(OCCN)c(c2)-c2cc1ccc2OCCN" and stop.
0.5 µg/mL

---

Test system: Escherichia coli ATCC 25922
Assay: Minimum inhibitory concentration, broth micro-dilution (CLSI), E. coli
Format: cell-based
Conditions: Escherichia coli, ATCC25922, 22 h, read-out: MIC (μg/mL) E. coli, E. coli ATCC 25922; 35° C., 22 hours
Kindly state MIC for each of the entries shown.
Answers are plain numbers, in µg/mL.

Field: example entries. Status: answers known.
CCCCCCCCCCCC(=O)N[C@@H](CO)C(=O)N[C@@H](CCN)C(=O)N(C)[C@@H]1C(=O)N[C@@H](C)C(=O)N[C@H](C(=O)NCC#N)Cc2ccc(OCCN)c(c2)-c2cc1ccc2OCCN | 3
C[C@@H]1NC(=O)[C@@H](N(C)C(=O)[C@H](CCN)NC(=O)c2ccc(C#CC3CCCCC3)cc2C(F)F)c2ccc(OCCN)c(c2)-c2cc(ccc2OCCN)C[C@@H](C(=O)NCC#N)NC1=O | 0.25
CCCCc1ccc(-c2ccc(C(=O)N[C@@H](CCN)C(=O)N(C)[C@@H]3C(=O)N[C@@H](C)C(=O)N[C@H](C(=O)NCC#N)Cc4ccc(OCCN)c(c4)-c4cc3ccc4OCCN)cc2)cc1 | 0.19
CCCCCCCCCC(=O)N[C@H](CO)C(=O)N1CC(N)C[C@H]1C(=O)N(C)[C@@H]1C(=O)N[C@@H](C)C(=O)N[C@H](C(=O)NCC#N)Cc2ccc(OCCN)c(c2)-c2cc1ccc2OCCN (stereo partly shown) | 16
CCCCCCCCCC(=O)N[C@@H](CO)C(=O)N[C@@H](CCN)C(=O)N(C)[C@@H]1C(=O)N[C@@H](C)C(=O)N[C@H](C(=O)NCC#N)Cc2ccc(OCCN)c(c2)-c2cc1ccc2OCCN | 24

Dear reader, for each entry below, please note its MIC.
1. CCCCCCCCCCCC(=O)N[C@@H](CC#N)C(=O)N(C)[C@@H]1C(=O)N[C@@H](C)C(=O)N[C@H](C(=O)NCC#N)Cc2ccc(OCCN)c(c2)-c2cc1ccc2OCCN
2. CCCCCCCCCC(=O)N[C@H](C)C(=O)N[C@@H](CCN)C(=O)N(C)[C@@H]1C(=O)N[C@@H](C)C(=O)N[C@H](C(=O)NCC#N)Cc2ccc(OCCN)c(c2)-c2cc1ccc2OCCN

16
16

---

Target: SpsB (Staphylococcus aureus signal peptidase) (Staphylococcus aureus)
Construct: This assay uses a suspension of Staphylococcus aureus cells as a source of SpsB instead of recombinant SpsB protein; endogenous in cells; host or cells: S. aureus, USA300 background, overexpressing SpsB (whole-cell suspension from frozen pellets)
Sequence (P0A070 whole entry): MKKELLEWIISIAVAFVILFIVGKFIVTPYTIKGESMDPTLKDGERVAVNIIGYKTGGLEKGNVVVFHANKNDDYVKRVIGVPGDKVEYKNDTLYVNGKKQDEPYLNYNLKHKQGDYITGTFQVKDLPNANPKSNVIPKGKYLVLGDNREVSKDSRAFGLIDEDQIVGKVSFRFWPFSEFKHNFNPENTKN
Experiment: cell-based
Assay type: biochemical
Conditions: SpsB IC50, whole-cell S. aureus (USA300 background, overexpressing SpsB) as SpsB source; fluorogenic peptide substrate, kinetic read 30 min
Procedure: A kinetic fluorogenic enzyme activity assay was used to assess inhibition of SpsB (Staphylococcus aureus signal peptidase) activity and IC50s were determined. This assay uses a suspension of Staphylococcus aureus cells as a source of SpsB instead of recombinant SpsB protein. Cell preparation: Luria broth (LB) was inoculated with S. aureus (USA300 background, overexpressing SpsB) and shaken at 37° C. until an OD600 nm of 1.5-2.0 was reached (˜4 hr). […]
IC50 vs 0.9 nM: less than gives True; not less than gives False.

Before answering, review these 2 worked examples.
CCCCCCCCCCNCCS(=O)(=O)N[C@@H](CCO)C(=O)N(C)[C@@H]1C(=O)N[C@@H](C)C(=O)N[C@H](C(=O)NCC#N)Cc2ccc(OCCN)c(c2)-c2cc1ccc2OCCN | True
C[C@@H]1NC(=O)[C@@H](N(C)C(=O)[C@H](CCCCN)NC(=O)c2cccc(-c3ccc(Cl)cc3)c2)c2ccc(OCCN)c(c2)-c2cc(ccc2OCCN)C[C@@H](C(=O)NCC#N)NC1=O | True

Strictly below 0.9 nM: is that where IC50 of "CCCCCCCCCCNCCS(=O)(=O)N[C@@H](CCN)C(=O)N(C)[C@@H]1C(=O)N[C@@H](C)C(=O)N[C@H](C(=O)NCC#N)Cc2ccc(OCCN)c(c2)-c2cc1ccc2OCCN" sits?
False

Hi there! Is IC50 for "C[C@@H]1NC(=O)[C@@H](N(C)C(=O)[C@H](CCCCN)NC(=O)c2ccc(-c3ccc(Cl)cc3)cc2)c2ccc(OCCN)c(c2)-c2cc(ccc2OCCN)C[C@@H](C(=O)N[C@@H](C)C#N)NC1=O" below 0.9 nM, do you know?
False

API: query returns whether the compound falls strictly under 0.9 nM in IC50. Query: "Cc1nc(-c2ccc([Si](C)(C)C)cc2)ncc1C(=O)N[C@@H](CCN)C(=O)N(C)[C@@H]1C(=O)N[C@@H](C)C(=O)N[C@H](C(=O)NCC#N)Cc2ccc(OCCN)c(c2)-c2cc1ccc2OCCN"
True

Field: below-cutoff. Rule: recorded IC50 strictly less than 0.9 nM. Subject: "CCCCCCCCCCCC(=O)N[C@@H](CC#N)C(=O)N(C)[C@@H]1C(=O)N[C@@H](C)C(=O)N[C@H](C(=O)NCC#N)Cc2ccc(OCCN)c(c2)-c2cc1ccc2OCCN"
False

Lab log: compare recorded IC50 with 0.9 nM; is it strictly lower for CCCCCCCCC(F)C(=O)NC(CO)C(=O)N(C)C1C(=O)NC(C)C(=O)NC(C(=O)NCC#N)Cc2ccc(OCCN)c(c2)-c2cc1ccc2OCCN (single isomer, unassigned) [Compound 394-P1] ?
False
